// data source = BigSolDB 2.1

conditions: in acetonitrile, 308.15 K
Measurement Name: solubility (mole fraction)

[Q] What does the data say about its solubility (mole fraction)? Entry: Sc1nc2ccccc2[nH]1
[A] 0.00205

###

settings: in 2-butanone, 293.15 K
Measurement Name: solubility (mole fraction)
Lab note: record the figure alone, no unit after it.

[Q] What does the data say about its solubility (mole fraction)? Entry: Sc1nc2ccccc2[nH]1
[A] 0.0124

###

conditions: in 1,4-dioxane, 298.15 K
Measurement Name: solubility (mole fraction)
Lab note: record the figure alone, no unit after it.

[Q] What does the data say about its solubility (mole fraction)? Entry: Sc1nc2ccccc2[nH]1
[A] 0.0195

###

conditions: in toluene, 293.15 K
Measurement Name: solubility (mole fraction)
Lab note: record the figure alone, no unit after it.

[Q] What does the data say about its solubility (mole fraction)? Entry: Sc1nc2ccccc2[nH]1
[A] 4.35e-05

###

conditions: in n-butanol, 278.15 K
Measurement Name: solubility (mole fraction)
Lab note: record the figure alone, no unit after it.

[Q] What does the data say about its solubility (mole fraction)? Entry: Sc1nc2ccccc2[nH]1
[A] 0.0041

###

conditions: in n-propanol, 288.15 K
Measurement Name: solubility (mole fraction)
Lab note: record the figure alone, no unit after it.

[Q] What does the data say about its solubility (mole fraction)? Entry: Sc1nc2ccccc2[nH]1
[A] 0.0065

###

details: in toluene, 308.15 K
Measurement Name: solubility (mole fraction)
Lab note: record the figure alone, no unit after it.

[Q] What does the data say about its solubility (mole fraction)? Entry: Sc1nc2ccccc2[nH]1
[A] 7.53e-05

###

details: in n-butanol, 313.15 K
Measurement Name: solubility (mole fraction)
Lab note: record the figure alone, no unit after it.

[Q] What does the data say about its solubility (mole fraction)? Entry: Sc1nc2ccccc2[nH]1
[A] 0.0125

###

settings: in ethanol, 293.15 K
Measurement Name: solubility (mole fraction)
Lab note: record the figure alone, no unit after it.

[Q] What does the data say about its solubility (mole fraction)? Entry: Sc1nc2ccccc2[nH]1
[A] 0.00868

###

settings: in acetone, 293.15 K
Measurement Name: solubility (mole fraction)
Lab note: record the figure alone, no unit after it.

[Q] What does the data say about its solubility (mole fraction)? Entry: Sc1nc2ccccc2[nH]1
[A] 0.0143

###

conditions: in cyclohexane, 293.15 K
Measurement Name: solubility (mole fraction)
Lab note: record the figure alone, no unit after it.

[Q] What does the data say about its solubility (mole fraction)? Entry: Sc1nc2ccccc2[nH]1
[A] 8.99e-06

###

conditions: in isopropanol, 303.15 K
Measurement Name: solubility (mole fraction)
Lab note: record the figure alone, no unit after it.

[Q] What does the data say about its solubility (mole fraction)? Entry: Sc1nc2ccccc2[nH]1
[A] 0.0088

###

details: in isopropanol, 308.15 K
Measurement Name: solubility (mole fraction)
Lab note: record the figure alone, no unit after it.

[Q] What does the data say about its solubility (mole fraction)? Entry: Sc1nc2ccccc2[nH]1
[A] 0.0102

###

settings: in n-butanol, 298.15 K
Measurement Name: solubility (mole fraction)
Lab note: record the figure alone, no unit after it.

[Q] What does the data say about its solubility (mole fraction)? Entry: Sc1nc2ccccc2[nH]1
[A] 0.00809

###

details: in ethyl acetate, 318.15 K
Measurement Name: solubility (mole fraction)
Lab note: record the figure alone, no unit after it.

[Q] What does the data say about its solubility (mole fraction)? Entry: Sc1nc2ccccc2[nH]1
[A] 0.00577

###

conditions: in ethanol, 298.15 K
Measurement Name: solubility (mole fraction)
Lab note: record the figure alone, no unit after it.

[Q] What does the data say about its solubility (mole fraction)? Entry: Sc1nc2ccccc2[nH]1
[A] 0.00998

###

conditions: in toluene, 313.15 K
Measurement Name: solubility (mole fraction)
Lab note: record the figure alone, no unit after it.

[Q] What does the data say about its solubility (mole fraction)? Entry: Sc1nc2ccccc2[nH]1
[A] 8.87e-05

###

conditions: in acetonitrile, 288.15 K
Measurement Name: solubility (mole fraction)
Lab note: record the figure alone, no unit after it.

[Q] What does the data say about its solubility (mole fraction)? Entry: Sc1nc2ccccc2[nH]1
[A] 0.00129

###

settings: in isopropanol, 293.15 K
Measurement Name: solubility (mole fraction)

[Q] What does the data say about its solubility (mole fraction)? Entry: Sc1nc2ccccc2[nH]1
[A] 0.00635

###

conditions: in cyclohexane, 278.15 K
Measurement Name: solubility (mole fraction)
Lab note: record the figure alone, no unit after it.

[Q] What does the data say about its solubility (mole fraction)? Entry: Sc1nc2ccccc2[nH]1
[A] 4.36e-06

###

conditions: in 2-butanone, 308.15 K
Measurement Name: solubility (mole fraction)
Lab note: record the figure alone, no unit after it.

[Q] What does the data say about its solubility (mole fraction)? Entry: Sc1nc2ccccc2[nH]1
[A] 0.0151

###

details: in 1,4-dioxane, 278.15 K
Measurement Name: solubility (mole fraction)
Lab note: record the figure alone, no unit after it.

[Q] What does the data say about its solubility (mole fraction)? Entry: Sc1nc2ccccc2[nH]1
[A] 0.0141

###

conditions: in methanol, 293.15 K
Measurement Name: solubility (mole fraction)
Lab note: record the figure alone, no unit after it.

[Q] What does the data say about its solubility (mole fraction)? Entry: Sc1nc2ccccc2[nH]1
[A] 0.00964

###

details: in acetone, 308.15 K
Measurement Name: solubility (mole fraction)
Lab note: record the figure alone, no unit after it.

[Q] What does the data say about its solubility (mole fraction)? Entry: Sc1nc2ccccc2[nH]1
[A] 0.0169

###

details: in methanol, 318.15 K
Measurement Name: solubility (mole fraction)
Lab note: record the figure alone, no unit after it.

[Q] What does the data say about its solubility (mole fraction)? Entry: Sc1nc2ccccc2[nH]1
[A] 0.0169

###

conditions: in n-propanol, 278.15 K
Measurement Name: solubility (mole fraction)
Lab note: record the figure alone, no unit after it.

[Q] What does the data say about its solubility (mole fraction)? Entry: Sc1nc2ccccc2[nH]1
[A] 0.00484

###

details: in cyclohexane, 288.15 K
Measurement Name: solubility (mole fraction)

[Q] What does the data say about its solubility (mole fraction)? Entry: Sc1nc2ccccc2[nH]1
[A] 7.05e-06

###

details: in ethanol, 318.15 K
Measurement Name: solubility (mole fraction)
Lab note: record the figure alone, no unit after it.

[Q] What does the data say about its solubility (mole fraction)? Entry: Sc1nc2ccccc2[nH]1
[A] 0.0158

###

details: in 2-butanone, 283.15 K
Measurement Name: solubility (mole fraction)
Lab note: record the figure alone, no unit after it.

[Q] What does the data say about its solubility (mole fraction)? Entry: Sc1nc2ccccc2[nH]1
[A] 0.011

###

conditions: in ethanol, 303.15 K
Measurement Name: solubility (mole fraction)
Lab note: record the figure alone, no unit after it.

[Q] What does the data say about its solubility (mole fraction)? Entry: Sc1nc2ccccc2[nH]1
[A] 0.0114

###

settings: in isopropanol, 283.15 K
Measurement Name: solubility (mole fraction)

[Q] What does the data say about its solubility (mole fraction)? Entry: Sc1nc2ccccc2[nH]1
[A] 0.00435

###

settings: in isopropanol, 318.15 K
Measurement Name: solubility (mole fraction)
Lab note: record the figure alone, no unit after it.

[Q] What does the data say about its solubility (mole fraction)? Entry: Sc1nc2ccccc2[nH]1
[A] 0.0132

###

conditions: in ethyl acetate, 303.15 K
Measurement Name: solubility (mole fraction)
Lab note: record the figure alone, no unit after it.

[Q] What does the data say about its solubility (mole fraction)? Entry: Sc1nc2ccccc2[nH]1
[A] 0.00413

###

settings: in toluene, 303.15 K
Measurement Name: solubility (mole fraction)

[Q] What does the data say about its solubility (mole fraction)? Entry: Sc1nc2ccccc2[nH]1
[A] 6.38e-05

###

settings: in n-propanol, 283.15 K
Measurement Name: solubility (mole fraction)

[Q] What does the data say about its solubility (mole fraction)? Entry: Sc1nc2ccccc2[nH]1
[A] 0.00559

###

details: in n-propanol, 308.15 K
Measurement Name: solubility (mole fraction)
Lab note: record the figure alone, no unit after it.

[Q] What does the data say about its solubility (mole fraction)? Entry: Sc1nc2ccccc2[nH]1
[A] 0.0114

###

conditions: in methanol, 298.15 K
Measurement Name: solubility (mole fraction)
Lab note: record the figure alone, no unit after it.

[Q] What does the data say about its solubility (mole fraction)? Entry: Sc1nc2ccccc2[nH]1
[A] 0.0109

###

details: in methanol, 313.15 K
Measurement Name: solubility (mole fraction)
Lab note: record the figure alone, no unit after it.

[Q] What does the data say about its solubility (mole fraction)? Entry: Sc1nc2ccccc2[nH]1
[A] 0.0152

###

conditions: in 1,4-dioxane, 318.15 K
Measurement Name: solubility (mole fraction)

[Q] What does the data say about its solubility (mole fraction)? Entry: Sc1nc2ccccc2[nH]1
[A] 0.0265

###

conditions: in toluene, 288.15 K
Measurement Name: solubility (mole fraction)
Lab note: record the figure alone, no unit after it.

[Q] What does the data say about its solubility (mole fraction)? Entry: Sc1nc2ccccc2[nH]1
[A] 3.51e-05
